For each record, write down the corresponding Emax.
target-desc: glutathione-S-transferase (GST) tagged LXRalpha LBD (ligand binding domain) (Homo sapiens)
Construct: purchased Invitrogen pv4655
Sequence (Q13133 209-447 limits assumed): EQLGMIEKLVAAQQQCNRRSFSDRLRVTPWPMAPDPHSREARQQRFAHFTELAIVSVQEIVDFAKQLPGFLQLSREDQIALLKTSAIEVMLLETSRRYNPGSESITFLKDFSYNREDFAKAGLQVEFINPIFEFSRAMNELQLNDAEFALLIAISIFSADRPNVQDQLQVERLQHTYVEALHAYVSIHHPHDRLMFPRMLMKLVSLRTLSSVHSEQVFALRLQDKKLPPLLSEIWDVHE
measurement-notes: LanthaScreen TR-FRET Liver X Receptor Coactivator Assay, co-activator recruitment to LXRalpha LBD
Assay type: biochemical
condition-details: efficacy at max dose, in relation to reference dual agonist T0901317; read-out: LXR alpha Activity @ max dose (%)
One number for each entry, in %.

Example entries and their recorded answers appear below.
input: Consider the compound shown here: `NC(=O)c1ccc(N2CCC(CC3CCN(C(=O)[C@](O)(c4cccc(Cl)c4)C(F)(F)F)CC3)CC2)cc1Cl` What is its recorded Emax?
output: 38

input: I have this compound here, `CNC(=O)c1ccc(N2CCC(CC3CCN(C(=O)[C@](O)(c4cccc(OC(F)(F)F)c4)C(F)(F)F)CC3)CC2)cc1Cl` , and I need its recorded Emax.
output: 24

// next item, Emax requested
input: Recorded Emax for `COc1cccc([C@@](O)(C(=O)N2CCC(OC3CCN(c4ccc(C(=O)N(C)C)c(OC)n4)CC3)CC2)C(F)(F)F)c1` , please?
output: 34

The measured values listed here are drawn from patent US10752587B2.
